For each record, write down the corresponding optical density.
- measured.target: T1, biotinylated goat anti-human kappa light chain
- T1 construct: positive control of the ELISA
- experimental.protocol: ELISA, positive control; note: test concentration or dose not given here
Please state the figure in OD; there is no need to write the unit.

Documented optical density of 369_G10 (antibody, V domains shown, Group I) VH: EVQLLESGGGLVQPGGSLRLSCAASGFTFSSYGMHWVRQAPGKGLEWVASINYNGGYTSYADSVKGRFTISRDNSKNTLYLQMNSLRAEDTAVYYCARAANWHDTALDYWGQGTLVTVSS VL: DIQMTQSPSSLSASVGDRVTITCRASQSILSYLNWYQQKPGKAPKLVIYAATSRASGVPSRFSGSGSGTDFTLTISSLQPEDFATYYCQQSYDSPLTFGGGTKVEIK : 3.49

Measured optical density of 365_E04 (antibody, V domains shown, Group I) VH: EVQLLESGGGLVQPGGSLRLSCAASGFTFDSYGMHWVRQAPGKGLEWVASINYNGGYKSYADSVKGRFTISRDNSKNTLYLQMNSLRAEDTAVYYCARAANWHDTALDYWGQGTLVTVSS VL: DIQMTQSPSSLSASVGDRVTITCRASQSILSYVNWYQQKPGKAPKLLIYAATSLASGVPSRFSGSGSGTDFTLTISSLQPEDFATYYCQQSYELPLTFGGGTKVEIK : 3.54

Notebook: 365_F10 (antibody, V domains shown, Group II) VH: EVQLLESGGGLVQPGGSLRLSCAASGFTFDDYGMHWVRQAPGKGLEWVSGINYNGGYTSYADSVKGRFTISRDNSKNTLYLQMNSLRAEDTAVYYCARAATWHDTHLDYWGQGTLVTVSS VL: DIQMTQSPSSLSASVGDRVTITCRASQSIVTYVNWYQQKPGKAPKLLIYAATSRASGVPSRFSGSGSGTDFTLTISSLQPEDFATYYCQQSYELPLTFGGGTKVEIK , optical density read as 3.65

Source of measurements: patent US20210380703A1
